Entries annotated with measured viability, T/C
# System: 217524-143-R1-J4-PDC spheroids with HUVEC/MSC, viability
# protocol: Anticancer human tumor 217524-143-R1-J4-PDC patient-derived pancreatic carcinoma cell line growth inhibition [CLK]
# condition-details: second compound 0.316 µM; first compound 0.316 µM; active compounds read low
Numbers only; they are read as %.

Answered examples (2):
[
  {
    "compound": "O=C(c1cc(Cc2n[nH]c(=O)c3ccccc23)ccc1F)N1CCN(C(=O)C2CC2)CC1 + CNC(=O)c1ccc(Nc2nc(OC3CCCC3)c3c(-c4ccc5nc(C)oc5c4)c[nH]c3n2)c(OC)c1",
    "value-observed": 35.4
  },
  {
    "compound": "C=CC(=O)N1CCN(c2nc(=O)n(-c3c(C)ccnc3C(C)C)c3nc(-c4c(O)cccc4F)c(F)cc23)C(C)C1 (stereo not drawn) + CNC(=O)c1ccc(Nc2nc(OC3CCCC3)c3c(-c4ccc5nc(C)oc5c4)c[nH]c3n2)c(OC)c1",
    "value-observed": 50.8
  }
]

Supply viability, T/C value. Item: COc1ccc([C@@H](O)c2cc(-c3ncnc4cc(N5CCOCC5)ccc34)c(F)cc2Cl)nn1 + CN1CCN(c2cc(C(=O)Nc3cc4cc(-c5cnn(C)c5)ccc4cn3)ccn2)CC1
15

* * *

# Tested on: 217524-143-R1-J4-PDC spheroids with HUVEC/MSC, viability
# protocol: Anticancer human tumor 217524-143-R1-J4-PDC cell line growth inhibition [CLK]; active = viability on the fitted dose curve at most 10% of control; inactive = the rest
# condition-details: second compound 10 µM; first compound 0.0316 µM
Hi! Could you answer with just one of these? true for active, false for inactive

Some solved entries appear below for comparison.
[
  {
    "compound": "CC(=O)O[C@H]1C(=O)[C@@]2(C)[C@H]([C@H](OC(=O)c3ccccc3)[C@]3(O)C[C@H](OC(=O)[C@H](O)[C@@H](NC(=O)c4ccccc4)c4ccccc4)C(C)=C1C3(C)C)[C@]1(OC(C)=O)CO[C@@H]1C[C@@H]2O + CNC(=O)c1ccc(Nc2nc(OC3CCCC3)c3c(-c4ccc5nc(C)oc5c4)c[nH]c3n2)c(OC)c1",
    "group": "false"
  },
  {
    "compound": "CC1(C)CCC(CN2CCN(c3ccc(C(=O)NS(=O)(=O)c4ccc(NCC5CCOCC5)c([N+](=O)[O-])c4)c(Oc4cnc5[nH]ccc5c4)c3)CC2)=C(c2ccc(Cl)cc2)C1 + CN1CCN(c2cc(C(=O)Nc3cc4cc(-c5cnn(C)c5)ccc4cn3)ccn2)CC1",
    "group": "true"
  },
  {
    "compound": "COc1ccc([C@@H](O)c2cc(-c3ncnc4cc(N5CCOCC5)ccc34)c(F)cc2Cl)nn1 + CNC(=O)c1ccc(Nc2nc(OC3CCCC3)c3c(-c4ccc5nc(C)oc5c4)c[nH]c3n2)c(OC)c1",
    "group": "false"
  }
]

Here is the next item to consider.
Write down the call the test reported for this compound. Item: CC(=O)O[C@H]1C(=O)[C@@]2(C)[C@H]([C@H](OC(=O)c3ccccc3)[C@]3(O)C[C@H](OC(=O)[C@H](O)[C@@H](NC(=O)c4ccccc4)c4ccccc4)C(C)=C1C3(C)C)[C@]1(OC(C)=O)CO[C@@H]1C[C@@H]2O + CN1CCN(c2cc(C(=O)Nc3cc4cc(-c5cnn(C)c5)ccc4cn3)ccn2)CC1
true

* * *

Entries annotated with measured viability, T/C
# System: 217524-143-R1-J4-PDC spheroids with HUVEC/MSC, viability
# protocol: Anticancer human tumor 217524-143-R1-J4-PDC cell line growth inhibition [CLK];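 also: spheroids exposed to agents for seven days before reading; 100% = DMSO vehicle control viability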
# condition-details: second compound 1 µM; first compound 3.16 µM; active compounds read low
Numbers only; they are read as %.

[
  {
    "compound": "O=c1[nH]cc(F)c(=O)[nH]1 + CN1CCN(c2cc(C(=O)Nc3cc4cc(-c5cnn(C)c5)ccc4cn3)ccn2)CC1",
    "value-observed": 1.3
  },
  {
    "compound": "CC1(C)CCC(CN2CCN(c3ccc(C(=O)NS(=O)(=O)c4ccc(NCC5CCOCC5)c([N+](=O)[O-])c4)c(Oc4cnc5[nH]ccc5c4)c3)CC2)=C(c2ccc(Cl)cc2)C1 + CN1CCN(c2cc(C(=O)Nc3cc4cc(-c5cnn(C)c5)ccc4cn3)ccn2)CC1",
    "value-observed": 1.3
  }
]

Please turn your attention to the following entry.
Supply viability, T/C value. Item: C=CC(=O)N1CCN(c2nc(=O)n(-c3c(C)ccnc3C(C)C)c3nc(-c4c(O)cccc4F)c(F)cc23)C(C)C1 (stereo not drawn) + CNC(=O)c1ccc(Nc2nc(OC3CCCC3)c3c(-c4ccc5nc(C)oc5c4)c[nH]c3n2)c(OC)c1
36.4

* * *

# System: 217524-143-R1-J4-PDC spheroids with HUVEC/MSC, viability
# protocol: Anticancer human tumor 217524-143-R1-J4-PDC cell line growth inhibition [CLK];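 also: spheroids exposed to agents for seven days before reading; 100% = DMSO vehicle control viability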
# condition-details: second compound 3.16 µM; first compound 0.003 µM; active compounds read low
Entries annotated with measured viability, T/C
Numbers only; they are read as %.

Answered examples (3):
[
  {
    "compound": "CC(C)CC(NC(=O)C(Cc1ccccc1)NC(=O)c1cnccn1)B(O)O (centres undefined) + CN1CCN(c2cc(C(=O)Nc3cc4cc(-c5cnn(C)c5)ccc4cn3)ccn2)CC1",
    "value-observed": 0.98
  },
  {
    "compound": "CC(C)CC(NC(=O)C(Cc1ccccc1)NC(=O)c1cnccn1)B(O)O (centres undefined) + CNC(=O)c1ccc(Nc2nc(OC3CCCC3)c3c(-c4ccc5nc(C)oc5c4)c[nH]c3n2)c(OC)c1",
    "value-observed": 41.2
  },
  {
    "compound": "C=CC(=O)Nc1cc(Nc2nccc(-c3cn(C)c4ccccc34)n2)c(OC)cc1N(C)CCN(C)C + CNC(=O)c1ccc(Nc2nc(OC3CCCC3)c3c(-c4ccc5nc(C)oc5c4)c[nH]c3n2)c(OC)c1",
    "value-observed": 28.3
  }
]

Please turn your attention to the following entry.
Supply viability, T/C value. Item: C=CC(=O)Nc1cc(Nc2nccc(-c3cn(C)c4ccccc34)n2)c(OC)cc1N(C)CCN(C)C + CN1CCN(c2cc(C(=O)Nc3cc4cc(-c5cnn(C)c5)ccc4cn3)ccn2)CC1
0.99

* * *

Entries annotated with measured viability, T/C
# System: 217524-143-R1-J4-PDC spheroids with HUVEC/MSC, viability
# protocol: Anticancer human tumor 217524-143-R1-J4-PDC cell line growth inhibition [CLK];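 also: spheroids exposed to agents for seven days before reading; 100% = DMSO vehicle control viability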
# condition-details: second compound 1 µM; first compound 0.01 µM; active compounds read low

Answered examples (4):
[
  {
    "compound": "COc1c(OCCCN2CCOCC2)ccc2c3n(c(=NC(=O)c4cnc(N)nc4)nc12)CCN3 + CNC(=O)c1ccc(Nc2nc(OC3CCCC3)c3c(-c4ccc5nc(C)oc5c4)c[nH]c3n2)c(OC)c1",
    "viability, T/C": "10.9%"
  },
  {
    "compound": "CCN1CCN(Cc2ccc(Nc3ncc(F)c(-c4cc(F)c5nc(C)n(C(C)C)c5c4)n3)nc2)CC1 + CN1CCN(c2cc(C(=O)Nc3cc4cc(-c5cnn(C)c5)ccc4cn3)ccn2)CC1",
    "viability, T/C": "2.94%"
  },
  {
    "compound": "CCc1c2c(nc3ccc(O)cc13)-c1cc3c(c(=O)n1C2)COC(=O)[C@]3(O)CC + CNC(=O)c1ccc(Nc2nc(OC3CCCC3)c3c(-c4ccc5nc(C)oc5c4)c[nH]c3n2)c(OC)c1",
    "viability, T/C": "20.5%"
  },
  {
    "compound": "CCc1c2c(nc3ccc(O)cc13)-c1cc3c(c(=O)n1C2)COC(=O)[C@]3(O)CC + CN1CCN(c2cc(C(=O)Nc3cc4cc(-c5cnn(C)c5)ccc4cn3)ccn2)CC1",
    "viability, T/C": "1.13%"
  }
]

Please turn your attention to the following entry.
Supply viability, T/C value. Item: Cn1ncnc1[C@H]1c2n[nH]c(=O)c3cc(F)cc(c23)N[C@@H]1c1ccc(F)cc1 + CN1CCN(c2cc(C(=O)Nc3cc4cc(-c5cnn(C)c5)ccc4cn3)ccn2)CC1
1.16%

* * *

# Test system: 217524-143-R1-J4-PDC spheroids with HUVEC/MSC, viability
# protocol: Anticancer human tumor 217524-143-R1-J4-PDC cell line growth inhibition [CLK];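 also: spheroids exposed to agents for seven days before reading; 100% = DMSO vehicle control viability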
# condition-details: second compound 3.16 µM; first compound 10 µM; active compounds read low
# From the text: A high-throughput screen of multi-cell type tumor spheroids was designed to identify active combinations of […] and targeted small molecules. Complex spheroids include a stromal component modeled by human endothelial cells (HUVEC) and fibroblasts modeled by human mesenchymal stem cells (MSCs). […] Compounds. […] If the clinical Cmax for an agent had not been determined, the highest concentration tested was 10 microM. […]
# thresholds on viability, T/C define classes: lower level = under 0.6%, middle level = from 0.6% up to 20%, upper level = 20% and over

Some solved entries appear below for comparison.
[
  {
    "compound": "O=c1[nH]cc(F)c(=O)[nH]1 + CNC(=O)c1ccc(Nc2nc(OC3CCCC3)c3c(-c4ccc5nc(C)oc5c4)c[nH]c3n2)c(OC)c1",
    "group": "middle level"
  },
  {
    "compound": "C#Cc1c(F)ccc2cc(O)cc(-c3ncc4c(N5CC6CCC(C5)N6)nc(OCC56CCCN5CC(F)C6)nc4c3F)c12 (stereo unspecified) + CNC(=O)c1ccc(Nc2nc(OC3CCCC3)c3c(-c4ccc5nc(C)oc5c4)c[nH]c3n2)c(OC)c1",
    "group": "middle level"
  },
  {
    "compound": "COc1ccc([C@@H](O)c2cc(-c3ncnc4cc(N5CCOCC5)ccc34)c(F)cc2Cl)nn1 + CN1CCN(c2cc(C(=O)Nc3cc4cc(-c5cnn(C)c5)ccc4cn3)ccn2)CC1",
    "group": "middle level"
  },
  {
    "compound": "CC(CO)NC(=O)c1cc(-c2ccc(Cl)cc2)nn(-c2cnn(C)c2)c1=O (stereo unspecified) + CNC(=O)c1ccc(Nc2nc(OC3CCCC3)c3c(-c4ccc5nc(C)oc5c4)c[nH]c3n2)c(OC)c1",
    "group": "upper level"
  },
  {
    "compound": "O=C(c1cc(Cc2n[nH]c(=O)c3ccccc23)ccc1F)N1CCN(C(=O)C2CC2)CC1 + CNC(=O)c1ccc(Nc2nc(OC3CCCC3)c3c(-c4ccc5nc(C)oc5c4)c[nH]c3n2)c(OC)c1",
    "group": "upper level"
  },
  {
    "compound": "C=C(F)C(=O)N1CCN(c2nc(OCC3CCCN3C)nc3c2CCN(c2cccc4cccc(Cl)c24)C3)CC1CC#N (stereo unspecified) + CNC(=O)c1ccc(Nc2nc(OC3CCCC3)c3c(-c4ccc5nc(C)oc5c4)c[nH]c3n2)c(OC)c1",
    "group": "lower level"
  },
  {
    "compound": "C=CC(=O)N1CCN(c2nc(=O)n(-c3c(C)ccnc3C(C)C)c3nc(-c4c(O)cccc4F)c(F)cc23)C(C)C1 (stereo unspecified) + CNC(=O)c1ccc(Nc2nc(OC3CCCC3)c3c(-c4ccc5nc(C)oc5c4)c[nH]c3n2)c(OC)c1",
    "group": "upper level"
  },
  {
    "compound": "COc1cccc2c1C(=O)c1c(O)c3c(c(O)c1C2=O)CC(O)(C(=O)CO)CC3OC1CC(N)C(O)C(C)O1 (stereo unspecified) + CN1CCN(c2cc(C(=O)Nc3cc4cc(-c5cnn(C)c5)ccc4cn3)ccn2)CC1",
    "group": "lower level"
  },
  {
    "compound": "C=C(F)C(=O)N1CCN(c2nc(OCC3CCCN3C)nc3c2CCN(c2cccc4cccc(Cl)c24)C3)CC1CC#N (stereo unspecified) + CN1CCN(c2cc(C(=O)Nc3cc4cc(-c5cnn(C)c5)ccc4cn3)ccn2)CC1",
    "group": "lower level"
  }
]

Here is the next item to consider.
Class? Entry: CC(Nc1ccc2c(c1)OCCn1cc(N3C(=O)OCC3C(F)F)nc1-2)C(N)=O (stereo unspecified) + CN1CCN(c2cc(C(=O)Nc3cc4cc(-c5cnn(C)c5)ccc4cn3)ccn2)CC1
middle level
